System: UACC-62 melanoma
ASSAY_INFO: NCI tumour cell line growth inhibition, 48 h
Reported values of TGI for individual entries
PROPERTY_NAME: TGI

> print(dat)
                                   compound  property.name  recorded.value
1  COc1c2occc2c(OC)c2c(=O)c(S(=O)(=O)NC(=O)Nc3ccc(Cl)cc3)coc12            TGI         > 10 µM
2  COC(=O)c1c(OC(C)=O)ccc2c1c1c(OC(C)=O)c3ccccc3c(OC(C)=O)c1n2Cc1cc(OC)cc(OC)c1            TGI        > 100 µM
3  COc1ccc(C2SC(N)=Nc3c2c(C)nn3C(=O)c2ccncc2)cc1 (stereo not given)            TGI        > 100 µM
4  CC(=O)NNc1nc(C)c(C(/C=C/c2ccc(/C=C/C(=N\NC(=O)c3ccncc3)c3sc(NNC(C)=O)nc3C)cc2)=N/NC(=O)c2ccncc2)s1            TGI        > 100 µM
5  CC(C)(O)Cn1c(=O)c(Oc2ccc(F)cc2F)cc2cnc(NC3CCOCC3)nc21            TGI         > 25 µM

====

System: CAKI-1 renal
ASSAY_INFO: NCI tumour cell line growth inhibition, 48 h; in the data active = GI50 below about 0.43 µM; inactive = the rest
Labels: t (active), f (inactive)

COMPOUND	CLASS_ASSIGNMENT
CC(=O)O[C@@H]1C=CC(=O)C2(CC(=O)O[C@@H]2/C=C(\C)CCC=C(C)C)C1 (some centres undefined)	f
COc1ccc(C(=O)CC2(O)C(=O)Nc3c(Cl)ccc(Cl)c32)cc1 (centres undefined)	f
COc1cc([C@@H]2c3cc4c(cc3[C@H](OC3OC5COC(c6ccccc6)OC5C(O)C3O)[C@H]3COC(=O)[C@H]23)OCO4)cc(OC)c1OC (some centres undefined)	t
CC/C=C/[C@@H]1C=C[C@@H]2CCC[C@H]2[C@@H]1CC[C@H](O)[C@H](C)N	f

====

Test system: K-562 leukemia
ASSAY_INFO: NCI tumour cell line growth inhibition, 48 h
PROPERTY_NAME: TGI

> print(dat)
                                   molecule  property.name  recorded.value
1  CC1CN=C(Nc2cccc(C(F)(F)F)c2)S1 (centres undefined)            TGI        > 100 µM
2  CC1(CCCC2(C)CCNC2=O)OCCO1 (centres undefined)            TGI         > 10 µM
3  COC1CCC(=C2C(=O)OC(C)(C)OC2=O)N1 (centres undefined)            TGI        > 100 µM
4  COc1ccc(NC(=O)CC/C(CC(=O)c2ccco2)=N/Nc2ccc([N+](=O)[O-])cc2[N+](=O)[O-])cc1            TGI        > 100 µM

====

Reported values of TGI for individual entries
Test system: SF-295 CNS
ASSAY_INFO: NCI tumour cell line growth inhibition, 48 h
PROPERTY_NAME: TGI

> print(dat)
                                   compound  recorded.value
1    COCn1c2ccc(OC(C)=O)cc2c2c(=O)oc(C)nc21        > 100 µM
2  CC1(CCCC2(C)CCNC2=O)OCCO1 (stereo unspecified)         > 10 µM
3           C=CCCc1cc(OC)ccc1CN(C)C(C)(C)CO        > 100 µM
4  CSc1nc2ccccc2c(=O)n1/N=C1\C(=O)N(CN2CCOCC2)c2ccc(Cl)cc21        > 100 µM
5  O=C(NCC1Nc2ccncc2S(=O)(=O)N1)c1ccc(Br)cc1 (stereo unspecified)        > 100 µM
6  CCOC(=O)C1=CN=C2C(=O)N(c3ccccc3)N(C)C2(C)C1=N (stereo unspecified)        > 100 µM

====

Reported values of TGI for individual entries
Tested on: UACC-62 melanoma
ASSAY_INFO: NCI tumour cell line growth inhibition, 48 h
PROPERTY_NAME: TGI

> print(dat)
                                    compound      assay.target  recorded.value
 1  CCCSc1cc(Cl)c(C)cc1S(=O)(=O)n1ccnc1OCCCN(C)C  UACC-62 melanoma        > 100 µM
 2          CCNc1nc(N)c(C(=O)c2ccc(Cl)cc2)s1  UACC-62 melanoma        > 100 µM
 3  COc1ccc(C(=O)CC2(O)C(=O)Nc3c(Cl)ccc(Cl)c32)cc1 (stereo not drawn)  UACC-62 melanoma        > 100 µM
 4                       NC(=O)C/C=C/CC(N)=O  UACC-62 melanoma        > 100 µM
 5  COc1ccc(C(=O)c2cc3c(N)c(C(=O)Nc4cccc(Cl)c4)sc3nc2C)cc1  UACC-62 melanoma       > 33.3 µM
 6           C=CCCc1cc(OC)ccc1CN(C)C(C)(C)CO  UACC-62 melanoma        > 100 µM
 7  O=C(c1ccccc1)c1nnn(Cc2cccc(Cl)c2)c1C(=O)c1ccccc1  UACC-62 melanoma        > 100 µM
 8  O=C1Cc2c(-c3ccc(Cl)cc3)cc(-c3ccccc3)nc2-c2ccccc2N1  UACC-62 melanoma       > 58.9 µM
 9                NNC(=O)CC(=O)Nc1ccc(Cl)cc1  UACC-62 melanoma        > 100 µM
10  COC(=O)C1=Cc2cc3c(cc2[C@H](c2ccc4c(c2)OCO4)C1C(=O)OC)OCO3 (stereo partly drawn)  UACC-62 melanoma        > 100 µM
11  Nc1ccc2c(c1)C1Oc3ccccc3CC1CO2 (stereo not drawn)  UACC-62 melanoma        > 100 µM
12  COc1ccc2oc(S(=O)(=O)N3CC(CCl)c4ccc([N+](=O)[O-])cc43)cc2c1 (stereo not drawn)  UACC-62 melanoma       > 37.6 µM
13  CCCC1NC(C#N)(C#N)C(CCC)NC1(C#N)C#N (stereo not drawn)  UACC-62 melanoma        > 100 µM

====

System: DU-145 prostate
ASSAY_INFO: NCI tumour cell line growth inhibition, 48 h
PROPERTY_NAME: TGI

COMPOUND	RECORDED_VALUE
O=C(O)CC(NC(=O)Nc1ccc([N+](=O)[O-])cc1)C(=O)Nc1ccc([N+](=O)[O-])cc1 (configuration not stated)	> 100 µM
Nc1ccc2c(c1)C1Oc3ccccc3CC1CO2 (configuration not stated)	> 100 µM
Nc1nc2nc3c(nc2c(=O)[nH]1)CN(c1ccc(C(=O)O)cc1)C3=O	> 100 µM
Oc1nc(N/N=C/c2c[nH]c3ccccc23)[nH]c1/C=C1\C=Nc2ccccc21	> 100 µM
O=C(Nc1ccc(Cl)c(Cl)c1)Nc1ccc(Cl)c([N+](=O)[O-])c1	> 25 µM
Cc1c(CNc2ccc(Cl)c(C(=O)NC(CC(=O)O)C(=O)O)c2)ccc2nc(N)nc(N)c12 (configuration not stated)	> 1000 µM
CCOC(=O)C1=CN=C2C(=O)N(c3ccccc3)N(C)C2(C)C1=N (configuration not stated)	> 100 µM
O=C(CCc1cccc(O)c1)NCCc1cccc(O)c1	> 100 µM
Cc1cc(S(=O)(=O)Nc2nc3ccsc3c(=O)n2N)c(S)cc1Cl	> 100 µM
CCCSc1cc(Cl)c(C)cc1S(=O)(=O)n1ccnc1OCCCN(C)C	> 100 µM
CC[C@]1(O)C[C@@H]2CN(Cc3c([nH]c4ccccc34)[C@@](C(=O)OC)(c3cc4c(cc3OC)N(C)[C@H]3[C@@](O)(C(=O)OC)[C@H](OC(C)=O)[C@]5(CC)[C@@H]6C[C@@H]6CN6CC[C@]43[C@@H]65)C2)C1	> 4.38 µM
O=C1COC(c2ccccc2O)=NN1CCCN1CCCC1	> 100 µM

====

Tested on: SK-OV-3 ovarian
ASSAY_INFO: NCI tumour cell line growth inhibition, 48 h
Reported values of TGI for individual entries
PROPERTY_NAME: TGI

COMPOUND	ASSAY_TARGET	RECORDED_VALUE
O=[N+]([O-])c1ccc2c(c1)nc(Cc1ccccc1)n2C[C@@H]1CCCN2CCCCC12 (stereo partly drawn)	SK-OV-3 ovarian	> 100 µM
O=C(Cn1ccnc1[N+](=O)[O-])NCCO	SK-OV-3 ovarian	> 100 µM
Cc1ncc(C(=O)Nc2ccc(CN3CCN(C)CC3)c(C(F)(F)F)c2)cc1C#Cc1c(N)ncc2ccc(C#N)cc12	SK-OV-3 ovarian	10.9 µM
CSc1nc2ccccc2c(=O)n1/N=C1\C(=O)N(CN2CCOCC2)c2ccc(Cl)cc21	SK-OV-3 ovarian	> 100 µM
CCSSCS(C)(=O)=O	SK-OV-3 ovarian	> 100 µM
CC/C(Cl)=N\OC(=O)Nc1ccc(OC)cc1	SK-OV-3 ovarian	31.7 µM
CC1CN(CCO)CC(C)O1 (stereo not drawn)	SK-OV-3 ovarian	> 100 µM
CCc1nc(N)nc(N)c1-c1ccc(Cl)cc1	SK-OV-3 ovarian	> 100 µM
CN(Cc1c2ccccc2cc2ccccc12)S(=O)(=O)c1ccc(-c2c3nc(c(-c4ccc(S(=O)(=O)N(C)Cc5c6ccccc6cc6ccccc56)cc4)c4ccc([nH]4)c(-c4ccc(S(=O)(=O)N(C)Cc5c6ccccc6cc6ccccc56)cc4)c4nc(c(-c5ccc(S(=O)(=O)N(C)Cc6c7ccccc7cc7ccccc67)cc5)c5ccc2[nH]5)C=C4)C=C3)cc1	SK-OV-3 ovarian	> 100 µM
COc1ccc(C(=O)/C=C/c2ccc(Cl)cc2)cc1S(N)(=O)=O	SK-OV-3 ovarian	18.6 µM
CC1=NN(c2cccc(Cl)c2)C2(C1)C(Cl)C(=O)N2c1nc2ccccc2s1 (stereo not drawn)	SK-OV-3 ovarian	69.1 µM
CCNC(=S)N/N=C/c1cc(OC)ccc1O	SK-OV-3 ovarian	> 100 µM
COC(c1ccsc1)C(C#N)(C#N)N=Cc1ccsc1 (stereo not drawn)	SK-OV-3 ovarian	59.1 µM
